experimentalSystem: ELIC H168A (Dickeya chrysanthemi, UniProt P0C7B7, H168A/INS163G)
Construct: expressed in transfected cells; host or cells: X. laevis oocytes
testName: Two-electrode voltage clamp, ELIC H168A in oocytes
Type: cell-based, Erwinia chrysanthemi
conditionSummary: Zn^2+ 0.1 mM, agonist propylamine

| inputSmiles | experimentalSystem | readoutUnits | EC50 |
| --- | --- | --- | --- |
| CCCN | ELIC H168A (Dickeya chrysanthemi, UniProt P0C7B7, H168A/INS163G) | mM | 12.2 |

###

experimentalSystem: ELIC S84A (Dickeya chrysanthemi, UniProt P0C7B7, INS163G/S84A)
testName: Two-electrode voltage clamp, ELIC S84A in oocytes
conditionSummary: S84A; Schild analysis; read-out: Ki app
pKi: −log10 of the molar value.

| inputSmiles | pKi |
| --- | --- |
| [Ca+2] | 3.82 |

###

experimentalSystem: ELIC H176A (Dickeya chrysanthemi, UniProt P0C7B7, H176A/INS163G)
Construct: expressed in transfected cells; host or cells: X. laevis oocytes
testName: Two-electrode voltage clamp, ELIC H176A in oocytes
Assay type: cell-based, Erwinia chrysanthemi
conditionSummary: Zn^2+ 0 mM, agonist propylamine
quantityName: EC50 (mM)

| inputSmiles | experimentalSystem | quantityName | readoutUnits | quantitativeResult |
| --- | --- | --- | --- | --- |
| CCCN | ELIC H176A (Dickeya chrysanthemi, UniProt P0C7B7, H176A/INS163G) | EC50 | mM | 5.16 |

###

experimentalSystem: ELIC WT (Dickeya chrysanthemi, UniProt P0C7B7)
Construct: expressed in transfected cells; host or cells: X. laevis oocytes (cRNA injection, pTLN vector)
testName: cell-based
Assay type: cell-based, Erwinia chrysanthemi
conditionSummary: WT; Sr^2+ 5 mM; agonist cysteamine
quantityName: EC50 (µM)

| inputSmiles | quantitativeResult |
| --- | --- |
| NCCS | 2110 |

###

experimentalSystem: ELIC D158A (Dickeya chrysanthemi, UniProt P0C7B7, D158A/INS163G)
Construct: expressed in transfected cells; host or cells: X. laevis oocytes
testName: Two-electrode voltage clamp, ELIC D158A in oocytes
Type: cell-based, Erwinia chrysanthemi
conditionSummary: Ca^2+ 1 mM, agonist cysteamine
pEC50: −log10 of the molar value.

| inputSmiles | experimentalSystem | pEC50 |
| --- | --- | --- |
| NCCS | ELIC D158A (Dickeya chrysanthemi, UniProt P0C7B7, D158A/INS163G) | 2.75 |

###

experimentalSystem: ELIC D158N (Dickeya chrysanthemi, UniProt P0C7B7, D158N/INS163G)
testName: Two-electrode voltage clamp, ELIC D158N in oocytes
conditionSummary: Schild analysis, read-out: Ki app
pKi: −log10 of the molar value.

| compound | pKi |
| --- | --- |
| [Ca+2] [Ca^2+, calcium] | 2.49 |

###

experimentalSystem: ELIC R91A (Dickeya chrysanthemi, UniProt P0C7B7, INS163G/R91A)
Construct: expressed in transfected cells; host or cells: X. laevis oocytes
testName: Two-electrode voltage clamp, ELIC R91A in oocytes
Assay type: cell-based, Erwinia chrysanthemi
conditionSummary: R91A; ACh 10 mM; agonist cysteamine
pEC50: −log10 of the molar value.

| compound | pEC50 |
| --- | --- |
| NCCS [cysteamine] | 2.75 |

###

experimentalSystem: ELIC D113A (Dickeya chrysanthemi, UniProt P0C7B7, D113A/INS163G)
Construct: expressed in transfected cells; host or cells: X. laevis oocytes
testName: Two-electrode voltage clamp, ELIC D113A in oocytes
Type: cell-based, Erwinia chrysanthemi
conditionSummary: Ca^2+ 10 mM, agonist cysteamine
pEC50: −log10 of the molar value.

| inputSmiles | pEC50 |
| --- | --- |
| NCCS | 2.54 |

###

experimentalSystem: ELIC WT (Dickeya chrysanthemi, UniProt P0C7B7)
Construct: expressed in transfected cells; host or cells: X. laevis oocytes (cRNA injection, pTLN vector)
testName: cell-based
Assay type: cell-based, Erwinia chrysanthemi
conditionSummary: WT/1Ca^2+; ACh 0 mM; agonist cysteamine
Protocol: Constructs containing the gene of either the WT or mutant channels preceded by the signal sequence of the chicken α7nAchR were cloned into the pTLN vector for expression in X. laevis oocytes. […] Currents were recorded in bath solutions containing 10 mM HEPES (pH 7), 130 mM NaCl, and the indicated concentrations of cysteamine and divalent cations. […]
pEC50: −log10 of the molar value.

| inputSmiles | pEC50 |
| --- | --- |
| NCCS | 2.76 |

###

experimentalSystem: ELIC D113A/D158A (Dickeya chrysanthemi, UniProt P0C7B7, D113A/D158A/INS163G)
Construct: expressed in transfected cells; host or cells: X. laevis oocytes
testName: cell-based
Type: cell-based, Erwinia chrysanthemi
conditionSummary: 113A/158A; Zn^2+ 0.1 mM; agonist propylamine
quantityName: EC50 (mM)

| inputSmiles | readoutUnits | quantitativeResult |
| --- | --- | --- |
| CCCN | mM | 4.22 |

###

experimentalSystem: ELIC WT (Dickeya chrysanthemi)
Construct: expressed in transfected cells; host or cells: X. laevis oocytes (cRNA injection, pTLN vector)
testName: cell-based
Type: cell-based, Erwinia chrysanthemi
conditionSummary: WT; Ca^2+ 0.1 mM; agonist cysteamine

| compound | EC50 / µM |
| --- | --- |
| NCCS [cysteamine] | 350 |

###

experimentalSystem: ELIC E150A (Dickeya chrysanthemi, UniProt P0C7B7, E150A/INS163G)
Construct: expressed in transfected cells; host or cells: X. laevis oocytes
testName: Two-electrode voltage clamp, ELIC E150A in oocytes
Type: cell-based, Erwinia chrysanthemi
conditionSummary: Ca^2+ 5 mM, agonist cysteamine
Description: Constructs containing the gene of either the WT or mutant channels preceded by the signal sequence of the chicken α7nAchR were cloned into the pTLN vector for expression in X. laevis oocytes. […] Currents were recorded in bath solutions containing 10 mM HEPES (pH 7), 130 mM NaCl, and the indicated concentrations of cysteamine and divalent cations. […]

| compound | EC50 [mM] |
| --- | --- |
| NCCS [cysteamine] | 6.1 |

###

experimentalSystem: ELIC D158A (Dickeya chrysanthemi, UniProt P0C7B7, D158A/INS163G)
testName: Two-electrode voltage clamp, ELIC D158A in oocytes
conditionSummary: Schild analysis, read-out: Ki app
Experimental: Constructs containing the gene of either the WT or mutant channels preceded by the signal sequence of the chicken α7nAchR were cloned into the pTLN vector for expression in X. laevis oocytes. […] Currents were recorded in bath solutions containing 10 mM HEPES (pH 7), 130 mM NaCl, and the indicated concentrations of cysteamine and divalent cations. […]
pKi: −log10 of the molar value.

| compound | experimentalSystem | pKi |
| --- | --- | --- |
| [Ca+2] [Ca^2+, calcium] | ELIC D158A (Dickeya chrysanthemi, UniProt P0C7B7, D158A/INS163G) | 2.27 |

###

experimentalSystem: ELIC S84A (Dickeya chrysanthemi, UniProt P0C7B7, INS163G/S84A)
Construct: expressed in transfected cells; host or cells: X. laevis oocytes
testName: Two-electrode voltage clamp, ELIC S84A in oocytes
Format: cell-based, Erwinia chrysanthemi
conditionSummary: S84A; Ca^2+ 0 mM; agonist cysteamine
Description: Constructs containing the gene of either the WT or mutant channels preceded by the signal sequence of the chicken α7nAchR were cloned into the pTLN vector for expression in X. laevis oocytes. […] Currents were recorded in bath solutions containing 10 mM HEPES (pH 7), 130 mM NaCl, and the indicated concentrations of cysteamine and divalent cations. […]

| inputSmiles | EC50 [µM] |
| --- | --- |
| NCCS | 360 |

###

experimentalSystem: ELIC N251A (Dickeya chrysanthemi, UniProt P0C7B7, N250A)
testName: Two-electrode voltage clamp, ELIC N251A in oocytes
conditionSummary: Schild analysis, read-out: Ki app
pKi: −log10 of the molar value.

| inputSmiles | pKi |
| --- | --- |
| [Ca+2] | 3.28 |

###

experimentalSystem: ELIC WT (Dickeya chrysanthemi)
Construct: expressed in transfected cells; host or cells: X. laevis oocytes (cRNA injection, pTLN vector)
testName: cell-based
Assay type: cell-based, Erwinia chrysanthemi
conditionSummary: WT; Ba^2+ 1 mM; agonist cysteamine
quantityName: EC50 (µM)

| inputSmiles | experimentalSystem | quantitativeResult |
| --- | --- | --- |
| NCCS | ELIC WT (Dickeya chrysanthemi) | 760 |

###

experimentalSystem: ELIC D113A/D158A (Dickeya chrysanthemi, UniProt P0C7B7, D113A/D158A/INS163G)
Construct: expressed in transfected cells; host or cells: X. laevis oocytes
testName: cell-based
Type: cell-based, Erwinia chrysanthemi
conditionSummary: 113A/158A; Ca^2+ 5 mM; agonist cysteamine
quantityName: EC50 (µM)

| molecule | readoutUnits | quantitativeResult |
| --- | --- | --- |
| NCCS [cysteamine] | µM | 1810 |

# credit: paper PMC3502511
